- assay method text: CREB reporter modulators without forskolin, primary screen, cell-based, PC12, CRE-LacZ reporter, unstimulated (AID 1145)
- condition set: no forskolin, luminescence, 4.5 h, called active from +8 up or from −8 down
Activity calls are given as the source filed them.
Mark one answer only. Choices: y for active, n for inactive

Reference set (2 entries):
{"structure notation": "CCOC(=O)C[C@H]1[C@H](OC(=O)c2cc3ccccc3oc2=O)[C@@H](NC(=O)c2ccc3ccccc3c2)c2cc(OCCCO)ccc2N1C(=O)c1ccc2ccccc2n1", "answer label": "y"}
{"structure notation": "O=C1c2ccccc2[C@](Cc2ccccc2I)(C(=O)NCC(F)(F)F)[C@H](c2ccc(CO)cc2)N1Cc1ccccc1C(F)(F)F", "answer label": "n"}

Switching to the query record.
I'd appreciate the recorded outcome for C[C@@H]1CC[C@H]2C(=O)N3[C@@H](CC[C@@H](C)[C@@H]3c3cccc(N4CCOCC4)c3)C(=O)N2[C@H]1c1cccc(N2CCOCC2)c1 from this test.
y

Reference for the values: PubChem BioAssay
